Test system: Horseradish peroxidase (HRP) (Armoracia rusticana, UniProt P00433)
Construct: purchased Sigma Chemical Corporation Type VI
Protocol details: Reducing substrate specificity assay (HRP-catalysed reduction of PPHP to PPA, HPLC)
Assay type: biochemical
Study conditions: 60 nM HRP, 200 microM reducing substrate, 100 microM PPHP, 0.1 M potassium citrate pH 5.5, 0.2 mM Tween-20, 25° C., 6 minutes, triplicate
Known Index = concentration PPA/(concentration PPA+concentration PPHP) of a selection of compounds

// recorded Index = concentration PPA/(concentration PPA+concentration PPHP) for Oc1ccc(O)cc1 [Hydroquinone, hydroquinone] : 0.97 ± 0.01

Sample "O=C(O)Cc1c[nH]c2ccccc12" ; Index = concentration PPA/(concentration PPA+concentration PPHP) observed: 0.14 ± 0.01

Just so you know, measured Index = concentration PPA/(concentration PPA+concentration PPHP) for "COc1ccccc1O" came out at 0.97 ± 0.01

Entry "N[C@@H](CCC(=O)N[C@@H](CS)C(=O)NCC(=O)O)C(=O)O" , Index = concentration PPA/(concentration PPA+concentration PPHP) reported as 0.07 ± 0.01

Record summary for "CSCC[C@H](N)C(=O)O" : reported Index = concentration PPA/(concentration PPA+concentration PPHP) = 0.05 ± 0.01

* * *

Test system: Horseradish peroxidase (HRP) (Armoracia rusticana, UniProt P00433)
Construct: purchased Sigma Chemical Corporation Type VI
Sequence (P00433 31-338 limits assumed): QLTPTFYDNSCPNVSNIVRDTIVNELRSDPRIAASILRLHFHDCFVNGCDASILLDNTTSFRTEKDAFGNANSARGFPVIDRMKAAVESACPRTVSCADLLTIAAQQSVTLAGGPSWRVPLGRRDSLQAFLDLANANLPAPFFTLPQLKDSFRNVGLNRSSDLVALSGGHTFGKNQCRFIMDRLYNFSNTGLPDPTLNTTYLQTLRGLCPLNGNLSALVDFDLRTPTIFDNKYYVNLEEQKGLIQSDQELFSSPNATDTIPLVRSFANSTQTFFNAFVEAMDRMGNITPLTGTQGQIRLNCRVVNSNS
Protocol details: Reducing substrate specificity assay (HRP-catalysed reduction of PPHP to PPA, HPLC)
Type: biochemical
Study conditions: 60 nM HRP, 200 microM reducing substrate, 100 microM PPHP, 0.1 M potassium citrate pH 5.5, 0.2 mM Tween-20, 25° C., 6 minutes, triplicate
Recorded Index = concentration PPA/(concentration PPA+concentration PPHP) values for a group of molecules are listed next.
API note: the answer field is a bare number with no unit suffix.

Please review the following examples before continuing.
{"Molecule": "O=C1O[C@H]([C@@H](O)CO)C(O)=C1O [Ascorbic Acid, 1-ascorbic acid]", "Test system": "Horseradish peroxidase (HRP) (Armoracia rusticana, UniProt P00433)", "Quantitative readout": 0.50}
{"Molecule": "O=C(O)CCCCC1CCSS1 (racemic) [Lipoic Acid, d,1-thiotic acid]", "Test system": "Horseradish peroxidase (HRP) (Armoracia rusticana, UniProt P00433)", "Quantitative readout": 0.06}
{"Molecule": "c1ccc(-c2oc(-c3ccccc3)c3ccccc23)cc1 [DPBF, 1,3-diphenylisobenzofuran]", "Test system": "Horseradish peroxidase (HRP) (Armoracia rusticana, UniProt P00433)", "Quantitative readout": 0.06}

// switching to the query molecule
According to the records, this molecule NC(=O)C1=CN([C@@H]2O[C@H](COP(=O)(O)OP(=O)(O)OC[C@H]3O[C@@H](n4cnc5c(N)ncnc54)[C@H](O)[C@@H]3O)[C@@H](O)[C@H]2O)C=CC1 [NADH] displays Index = concentration PPA/(concentration PPA+concentration PPHP) of 0.05

// provenance: patent US4780281A
